- EXPERIMENT DESCRIPTION: Tissue distribution of toremifene after single dose (500 μg) IP vs. topical
- Format: in vivo
- RECORDED CONDITIONS: mouse, serum, ip, 0.5 mg, Serum toremifene concentration
MEASUREMENT TYPE: concentration at 2 h (ng/mL)

1. CN(C)CCOc1ccc(/C(=C(/CCCl)c2ccccc2)c2ccccc2)cc1 [toremifene] = 90

----------
- Tested on: TD 36
- EXPERIMENT DESCRIPTION: Cytostatic effect in melanoma cell line TD 36
- Assay type: cell-based
- RECORDED CONDITIONS: human cell line TD 36; read-out: IC-50 (50% growth inhibitory concentration)
pIC50: −log10 of the molar value.
MEASUREMENT TYPE: pIC50

1. CN(C)CCOc1ccc(/C(=C(/CCCl)c2ccccc2)c2ccccc2)cc1 = 5.24
